tested on: EGFR− HEK293 cells; assay: XTT cell viability / cytotoxicity, HEK293 cells; format: cell-based; conditions: HEK293; 6 h pre-incubation, wash, 72 h incubation; XTT
Parameter measured: IC50 (nM)
The reply should be a number in nM, with the unit left off.

Qu. Name the reported IC50 value associated with the molecule CCc1c2c(nc3ccc(O)cc13)-c1cc3c(c(=O)n1C2)COC(=O)[C@]3(O)CC
Ans. 2700

###

IC50 for assorted compounds
test system: EGFR+ H1299 cells; assay: XTT cell viability / cytotoxicity, H1299 cells; assay type: cell-based; details: 6 h pre-incubation, wash, 72 h incubation
Positions of bridges follow the written chain, without caps; N, C: chain ends. Residues, ends and D or L forms follow the SMILES beside them. *: point of attachment. X1 = CCc1c2c(nc3ccc(O)cc13)-c1cc3c(c(=O)n1C2)COC(=O)[C@@]3(CC)OC(=O)CCC(=O)*; GABA = NCCCC(=O)O
The reply should be a number in µM, with the unit left off.

Qu. Param readout = IC50; param system = EGFR+ H1299 cells; param query = CCc1c2c(nc3ccc(O)cc13)-c1cc3c(c(=O)n1C2)COC(=O)[C@]3(O)CC [SN38] ; response: value
Ans. 0.5

Qu. Param readout = IC50; param system = EGFR+ H1299 cells; param query = CCc1c2c(nc3ccc(O)cc13)-c1cc3c(c(=O)n1C2)COC(=O)[C@@]3(CC)OC(=O)CCC(=O)NCCCC(=O)N[C@H]1CSSC[C@@H](C(N)=O)NC(=O)[C@H]([C@@H](C)CC)NC(=O)[C@H](Cc2ccc(O)cc2)NC(=O)[C@H](CO)NC(=O)CNC(=O)[C@@H]2CCCN2C(=O)[C@H](C(C)C)NC(=O)[C@H](Cc2c[nH]cn2)NC1=O [P6-SN38] ({X1-GABA}-CHVPGSYIC-NH2; disulfide 1-9) ; response: value
Ans. 0.9
